Test system: Escherichia coli TOP10
ASSAY TEXT: shrunken log2 fold change of peptide-encoding DNA abundance (4.5 h post-induction vs induction); higher = less antimicrobial activity (less host growth inhibition)
CONDITION PARAMETERS: time post-induction: 4.5 h; library: site-saturation at positions 5, 18, 19, 20
Reported shrunken log2 fold change values for the following sequences.
PROPERTY: shrunken log2 fold change

# SEQUENCE CONTENT, PROPERTY, RECORDED NUMBER
records = [
    ("RRIRYRPPRLPRPRPRPFRTPRP", "shrunken log2 fold change", -0.0801),
    ("RRIRCRPPRLPRPRPRPIKNPRP", "shrunken log2 fold change", -0.311),
    ("RRIRVRPPRLPRPRPRPDWMPRP", "shrunken log2 fold change", -0.0942),
    ("RRIRRRPPRLPRPRPRPNCCPRP", "shrunken log2 fold change", 0.0381),
]

---

Tested on: Escherichia coli TOP10;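 further: peptides expressed intracellularly from a pBAD plasmid library in pooled LB shake-flask culture, induced with 0.3% L-arabinose, DNA abundance read by NGS, three biological replicates, DESeq2 with apeglm shrinkage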
ASSAY TEXT: shrunken log2 fold change of peptide-encoding DNA abundance (4.5 h post-induction vs induction); higher = less antimicrobial activity (less host growth inhibition)
CONDITION PARAMETERS: time post-induction: 4.5 h; library: site-saturation at positions 5, 18, 19, 20
If the reported shrunken log2 fold change equals or exceeds -0.01, assign YES. If not, assign NO.

# SEQUENCE CONTENT, CLASSIFICATION
rows = [
    ("RRIRRRPPRLPRPRPRPVNFPRP", "NO"),
    ("RRIRPRPPRLPRPRPRPSEVPRP", "NO"),
    ("RRIRQRPPRLPRPRPRPWCWPRP", "YES"),
    ("RRIRPRPPRLPRPRPRPKKDPRP", "NO"),
    ("RRIRHRPPRLPRPRPRPSMNPRP", "NO"),
    ("RRIRCRPPRLPRPRPRPYMMPRP", "NO"),
    ("RRIRARPPRLPRPRPRPGWEPRP", "YES"),
    ("RRIRWRPPRLPRPRPRPEHAPRP", "YES"),
    ("RRIRKRPPRLPRPRPRPKHAPRP", "NO"),
    ("RRIRMRPPRLPRPRPRPAPNPRP", "YES"),
    ("RRIRHRPPRLPRPRPRPWCWPRP", "YES"),
    ("RRIRSRPPRLPRPRPRPDKIPRP", "YES"),
    ("RRIRLRPPRLPRPRPRPTDIPRP", "NO"),
    ("RRIRRRPPRLPRPRPRPHEQPRP", "YES"),
    ("RRIRIRPPRLPRPRPRPAIYPRP", "YES"),
    ("RRIRYRPPRLPRPRPRPMRFPRP", "YES"),
    ("RRIRCRPPRLPRPRPRPLDGPRP", "NO"),
    ("RRIRTRPPRLPRPRPRPCGYPRP", "NO"),
    ("RRIRMRPPRLPRPRPRPNYWPRP", "NO"),
    ("RRIRYRPPRLPRPRPRPGKTPRP", "NO"),
    ("RRIRSRPPRLPRPRPRPITIPRP", "NO"),
    ("RRIRWRPPRLPRPRPRPAKHPRP", "YES"),
    ("RRIRHRPPRLPRPRPRPLKAPRP", "NO"),
    ("RRIRYRPPRLPRPRPRPAYCPRP", "NO"),
    ("RRIRQRPPRLPRPRPRPSRQPRP", "NO"),
]
